Origin of values: patent US12528947B2

Assay: Maximal absorption wavelength of infrared-absorbing coloring agent in good solvent
Assay type: physicochemical
Conditions: coloring agent solution in dimethyl sulfoxide, wavelength range 650 to 1500 nm
Protocol: Each infrared-absorbing coloring agent was dissolved in a solvent (good solvent) descried in the following table to prepare a coloring agent solution having a concentration of infrared-absorbing coloring agent of […], and absorption spectrum of the coloring agent solution was measured. […]
# reported Number of maximal absorption wavelengths; entries follow
Please give the numeric answer without any surrounding text.

Known results for compounds:
>>> reported("COc1ccc2nc(/C(C#N)=c3/c4c(-c5ccccc5C)n(B(c5ccccc5)c5ccccc5)/c(=C(/C#N)c5nc6ccc(OC)cc6s5)c4c(-c4ccc(OCCCCS(=O)(=O)O)cc4)n3B(c3ccccc3)c3ccccc3)sc2c1")
2
>>> reported("Cc1ccccc1-c1c2/c(=C(\\C#N)c3nc4ccccc4s3)n(B(c3ccccc3)c3ccccc3)c(-c3ccc(OCCCCS(=O)(=O)O)cc3)c2/c(=C(\\C#N)c2nc3ccccc3s2)n1B(c1ccccc1)c1ccccc1")
2

For the compound shown here, Cc1ccccc1-c1c2/c(=C(\C#N)c3nc4ccccc4s3)n(B(c3ccccc3)c3ccccc3)c(-c3ccc(OCCCN(C)C)cc3)c2/c(=C(\C#N)c2nc3ccccc3s2)n1B(c1ccccc1)c1ccccc1 , give the reported Number of maximal absorption wavelengths.
2

====

Assay: Maximal absorption wavelength of infrared-absorbing coloring agent in good solvent
Assay type: physicochemical
Conditions: coloring agent solution in dimethyl sulfoxide, largest absorbance in 650 to 1500 nm
measurementKind: λmax
Please format your answer as a value with the unit trailing.

Known results for compounds:
>>> reported("COc1ccc2nc(/C(C#N)=c3/c4c(-c5ccccc5C)n(B(c5ccccc5)c5ccccc5)/c(=C(/C#N)c5nc6ccc(OC)cc6s5)c4c(-c4ccc(OCCCCS(=O)(=O)O)cc4)n3B(c3ccccc3)c3ccccc3)sc2c1 [Example A-6]")
"801 nm"
>>> reported("Cc1ccccc1-c1c2/c(=C(\\C#N)c3nc4ccc(Br)cc4o3)n(B(c3ccccc3)c3ccccc3)c(-c3ccc(OCCCS(=O)(=O)O)cc3)c2/c(=C(\\C#N)c2nc3ccc(Br)cc3o2)n1B(c1ccccc1)c1ccccc1 [Example A-7]")
"747 nm"
>>> reported("Cc1ccccc1-c1c2/c(=C(\\C#N)c3nc4ccc(Cl)cc4o3)n(B(c3ccccc3)c3ccccc3)c(-c3ccc(OCCCS(=O)(=O)O)cc3)c2/c(=C(\\C#N)c2nc3ccc(Cl)cc3o2)n1B(c1ccccc1)c1ccccc1 [Example A-5]")
"746 nm"
>>> reported("Cc1ccccc1-c1c2/c(=C(\\C#N)c3ccc4ccccc4n3)n(B(c3ccccc3)c3ccccc3)c(-c3ccc(OCCCCS(=O)(=O)O)cc3)c2/c(=C(\\C#N)c2ccc3ccccc3n2)n1B(c1ccccc1)c1ccccc1 [Example A-1]")
"819 nm"
>>> reported("Cc1ccccc1-c1c2/c(=C(\\C#N)c3nc4ccccc4s3)n(B(c3ccccc3)c3ccccc3)c(-c3ccc(OCCCN(C)C)cc3)c2/c(=C(\\C#N)c2nc3ccccc3s2)n1B(c1ccccc1)c1ccccc1 [Example A-3]")
"780 nm"
>>> reported("Cc1ccccc1-c1c2/c(=C(\\C#N)c3ccc4ccccc4n3)n(B(c3ccccc3)c3ccccc3)c(-c3ccc(OCCO)cc3)c2/c(=C(\\C#N)c2ccc3ccccc3n2)n1B(c1ccccc1)c1ccccc1 [Comparative coloring agent 1, reference compound]")
"819 nm"

Okay, next one:
For the compound shown here, Cc1ccccc1-c1c2/c(=C(\C#N)c3nc4ccccc4s3)n(B(c3ccccc3)c3ccccc3)c(-c3ccc(OCCCCS(=O)(=O)O)cc3)c2/c(=C(\C#N)c2nc3ccccc3s2)n1B(c1ccccc1)c1ccccc1 [Example A-4] , give the reported λmax.
779 nm
